# target: CFP-10 (monomer) (Mycobacterium tuberculosis, UniProt P9WNK5 P9WNK5:2-100)
# experimental protocol: SPR; CFP-10 immobilised on CM5 chip, BIAcore 3000
# condition set: label: biotin; two predicted stem-loops
measured property: pKd
Reminder that pKd means the negative base-10 logarithm of the concentration expressed in mol/L.

Bench note: what pKd did CSIR 2.19 (ssDNA) DNA: GCCTGTTGTGAGCCTCCTAACTTCCAATAACGATACTTAAACCTGGTCTTTGCCAGTCAATGATAGCATCATGCTTATTCTTGTCTCCC show?
8.80
